tested on: HEK-293T; experiment: Multiplex assay against HEK293T; assay type: toxicity, cell-based; details: human, 12 h, 1 µM, compound concentration 1 uM, replicate 1
parameter_measured: Total Cell Count
The response must contain the number and no unit.

In the examples that follow, each entry is paired with its recorded Total Cell Count.
compound: CN1CCN(CCOc2cc(OC3CCOCC3)c3c(Nc4c(Cl)ccc5c4OCO5)ncnc3c2)CC1
Total Cell Count: 345
//
compound: C[C@@]1(C(=O)Nc2ccc(F)nc2)CCCN1c1nc(Nc2cc(C3CC3)n[nH]2)c2cccn2n1
Total Cell Count: 622
//
compound: CCN(CC)CCCCNc1ncc2cc(-c3cc(OC)cc(OC)c3)c(NC(=O)NC(C)(C)C)nc2n1
Total Cell Count: 685
//
compound: O=C1NCN(c2ccccc2)C12CCN(CCCOc1ccc(F)cc1)CC2 [SPIRAMIDE]
Total Cell Count: 216
//
compound: COc1cc(-n2cnc3cc(-c4ccc(Cl)cc4)sc3c2=O)ccc1OCCN1CCCC1
Total Cell Count: 212

We now examine a further compound.
Suppose we examine the compound `CC[C@H](C)C(=O)O[C@H]1C[C@@H](C)C=C2C=C[C@H](C)[C@H](CC[C@@H]3C[C@@H](O)CC(=O)O3)[C@H]21` ; what Total Cell Count value has been reported?
174

====

test system: U2OS; experiment: Multiplex assay against U2OS; assay type: toxicity, cell-based; conditions: human, 12 h, 10 µM, compound concentration 10 uM, replicate 1
Label scheme for Population Normal (%): lower than 90% is no, 90% and above is yes.

The examples below pair each entry with its known result.
compound: CN1CCC[C@@H]1CCO[C@](C)(c1ccccc1)c1ccc(Cl)cc1.O=C(O)/C=C/C(=O)O [CLEMASTINE FUMARATE]
tested_target: U2OS
qualitative_label: no
--
compound: Cn1cncc1[C@@](O)(COc1ccc(C#N)cc1-c1ccc(OC(F)(F)F)cc1)c1ccc(C#N)cc1
tested_target: U2OS
qualitative_label: yes
--
compound: COc1ncc(-c2ccc3nccc(-c4ccnnc4)c3c2)cc1NS(=O)(=O)c1ccc(F)cc1F
tested_target: U2OS
qualitative_label: yes
--
compound: C=CC(=O)Nc1cc2c(Nc3ccc(F)c(Cl)c3)ncnc2cc1OCCCN1CCOCC1.Cl.Cl [CANERTINIB DIHYDROCHLORIDE]
tested_target: U2OS
qualitative_label: yes
--
compound: OC1(c2ccc(Cl)cc2)CCN(Cc2c[nH]c3ccccc23)CC1
tested_target: U2OS
qualitative_label: yes

I'd appreciate it if you could say whether `Cn1cc(-c2[nH]c3cc(NC(=O)[C@H](N)C4CCCCC4)cc4c3c2C=NNC4=O)cn1` has Population Normal (%) at least equal to 90%.
yes

====

The reader will find reported Population Mitochondria Different-Phenotype (%) values listed item by item below.
test system: HEK-293T; assay: Multiplex assay against HEK293T; type: toxicity, cell-based; conditions: human, 12 h, 10 µM, compound concentration 10 uM, replicate 1
Numbers only; they are read as %.

Recorded Population Mitochondria Different-Phenotype (%), per entry:
compound: CC(C)(O)CNc1ncc(-c2ccnc(Nc3ccnc(Cl)c3)n2)c(CC2CC2)n1
recorded_value: 93

compound: O=C1NCN(c2ccccc2)C12CCN(CCCOc1ccc(F)cc1)CC2 [SPIRAMIDE]
recorded_value: 95

compound: COc1cccc([C@@H](C)NCCCc2ccccc2Cl)c1.Cl [TECALCET HYDROCHLORIDE]
recorded_value: 100

Please look up its Population Mitochondria Different-Phenotype (%): `Cc1cc(C)cc(-c2cnc3cc(Cl)c(-c4cccc(O)c4)cc3c2OCCCN)c1`
33

Sample `COc1cc2nccc(Oc3ccc(NC(=O)Nc4cc(C)on4)c(Cl)c3)c2cc1OC.O` — what was its Population Mitochondria Different-Phenotype (%)?
100

Recorded Population Mitochondria Different-Phenotype (%) of `Cc1nc(-c2ccc(-c3ccc(C(=O)N4CCc5cc6c(cc54)C4(CCN(C)CC4)CO6)cc3)c(C)c2)no1` , please.
98

Report Population Mitochondria Different-Phenotype (%) for `CN1CCN(CCOc2cc(OC3CCOCC3)c3c(Nc4c(Cl)ccc5c4OCO5)ncnc3c2)CC1` please.
94

Sample `c1cn2cc(-c3ccc4cn[nH]c4c3)nc(Nc3ccc(N4CCOCC4)cc3)c2n1` — what was its Population Mitochondria Different-Phenotype (%)?
89

Look up Population Mitochondria Different-Phenotype (%): C=CC(=O)Nc1cc2c(Nc3ccc(F)c(Cl)c3)ncnc2cc1OCCCN1CCOCC1.Cl.Cl [CANERTINIB DIHYDROCHLORIDE]
12

====

tested on: HEK-293T; experiment: Multiplex assay against HEK293T; type: toxicity, cell-based; settings: human, 48 h, 1 µM, compound concentration 1 uM, replicate 2
parameter_measured: Population Pyknosed Nuclei (%)
The reply should be a number in %, with the unit left off.

compound: Cc1[nH]c(/C=C2\C(=O)Nc3ccc(S(=O)(=O)N(C)c4cccc(Cl)c4)cc32)c(C)c1C(=O)N1CCN(C)CC1
unit_abbreviation: %
recorded_value: 19

compound: OC1(c2ccc(Cl)cc2)CCN(Cc2c[nH]c3ccccc23)CC1
unit_abbreviation: %
recorded_value: 22

compound: C[C@@H](NCCCc1cccc(C(F)(F)F)c1)c1cccc2ccccc12.Cl [CINACALCET HYDROCHLORIDE]
unit_abbreviation: %
recorded_value: 22

compound: Cc1c(-c2ccc(O)cc2)n(Cc2ccc(OCCN3CCCCCC3)cc2)c2ccc(O)cc12
unit_abbreviation: %
recorded_value: 21

compound: c1cn2cc(-c3ccc4cn[nH]c4c3)nc(Nc3ccc(N4CCOCC4)cc3)c2n1
unit_abbreviation: %
recorded_value: 19

compound: CN1CCN(c2ccc(OC(F)(F)F)c(Nc3ncc4c(n3)-c3c(c(C(N)=O)nn3CCO)CC4)c2)CC1
unit_abbreviation: %
recorded_value: 42

compound: CC(C)NCC(O)COc1ccc(CCOCC2CC2)cc1.Cl (stereo not drawn) [BETAXOLOL HYDROCHLORIDE]
unit_abbreviation: %
recorded_value: 11

Could you tell me which Population Pyknosed Nuclei (%) is on file for CN(C)C(=O)N[C@H]1CC[C@H](CCN2CCN(c3cccc(Cl)c3Cl)CC2)CC1.Cl [CARIPRAZINE HYDROCHLORIDE] ?
13

====

test system: U2OS; assay: Multiplex assay against U2OS; format: toxicity, cell-based; settings: human, 12 h, 1 µM, compound concentration 1 uM, replicate 1
parameter_measured: Population Mitotic Cells (%)
Hi! Could you send only the number? It should be in %, unit omitted.

Sample answers from the record:
compound: c1cn2cc(-c3ccc4cn[nH]c4c3)nc(Nc3ccc(N4CCOCC4)cc3)c2n1 [ENTOSPLETINIB]
recorded_value: 67
//
compound: C[C@@]1(C(=O)Nc2ccc(F)nc2)CCCN1c1nc(Nc2cc(C3CC3)n[nH]2)c2cccn2n1 [BMS-754807]
recorded_value: 74
//
compound: Cl.N#Cc1ccc2[nH]cc(CCCCN3CCN(c4ccc5oc(C(N)=O)cc5c4)CC3)c2c1 [VILAZODONE HYDROCHLORIDE]
recorded_value: 57

// moving on: another record for Population Mitotic Cells (%)
Request - read-out Population Mitotic Cells (%) | tested on U2OS | compound C=CC(=O)Nc1cc2c(Nc3ccc(F)c(Cl)c3)ncnc2cc1OCCCN1CCOCC1.Cl.Cl [CANERTINIB DIHYDROCHLORIDE]
8

====

tested on: HEK-293T; assay: Multiplex assay against HEK293T; assay type: toxicity, cell-based; conditions: human, 48 h, 10 µM, compound concentration 10 uM, replicate 1
parameter_measured: Population Mitochondria Different-Phenotype (%)
Answer with a number only, understood to be in %.

chemical_smiles: Cc1csc2c(N[C@@H](C)CN3CCN(S(=O)(=O)c4ccc(Cl)c(Cl)c4)CC3)ncnc12
recorded_value: 62

Fill in: Population Mitochondria Different-Phenotype (%) of `c1cn2cc(-c3ccc4cn[nH]c4c3)nc(Nc3ccc(N4CCOCC4)cc3)c2n1` is ___
43

Given the entry `CN1CCN(CCOc2cc(OC3CCOCC3)c3c(Nc4c(Cl)ccc5c4OCO5)ncnc3c2)CC1` , report its measured Population Mitochondria Different-Phenotype (%).
96

Which value of Population Mitochondria Different-Phenotype (%) has been reported for `Cc1nc(-c2ccc(-c3ccc(C(=O)N4CCc5cc6c(cc54)C4(CCN(C)CC4)CO6)cc3)c(C)c2)no1` in the records?
100

====

test system: Fibroblast; assay: Incucyte cell viability with human fibroblast; assay type: toxicity, cell-based; conditions: 18 h, 10 µM, compound concentration 10 uM, replicate number 1, timepoint 18 hours; further: filed as whole numbers so only -1 and 0 and 1 occur
Where a SMILES comes first, the peptide text is derived from it. [ ]: non-standard residue; d: D form. Arg(Me) = CNC(=N)NCCC[C@H](N)C(=O)O; d4Pal = N[C@H](Cc1ccncc1)C(=O)O; azaGly = NNC(=O)O
parameter_measured: Growth Rate
Respond numerically, and do not add a unit to the figure.

Worked set:
compound: CCCc1nc2c(C)cc(-c3nc4ccccc4n3C)cc2n1Cc1ccc(-c2ccccc2C(=O)O)cc1
Growth Rate: 1
//
compound: CNC(=N)NCCC[C@H](NC(=O)[C@H](CC(C)C)NC(=O)NNC(=O)[C@H](Cc1ccccc1)NC(=O)[C@H](CO)NC(=O)[C@H](CC(N)=O)NC(=O)[C@@H](Cc1ccncc1)NC(=O)[C@H](N)Cc1ccc(O)cc1)C(=O)N[C@@H](Cc1ccccc1)C(N)=O [KISS1-305] (H-[dY][d4Pal]NSF[azaGly]L[Arg(Me)]F-NH2)
Growth Rate: 0
//
compound: CC[C@H](C)C(=O)O[C@H]1C[C@@H](C)C=C2C=C[C@H](C)[C@H](CC[C@@H]3C[C@@H](O)CC(=O)O3)[C@H]21
Growth Rate: 1
//
compound: CCc1cc(C(C)=O)c(O)cc1OCCCCCC(C)(C)c1nn[nH]n1
Growth Rate: 0
//
compound: O=C(NCc1ccccc1)c1ccc(S(=O)(=O)NCc2ccccc2)cc1
Growth Rate: 1

Continue with the compound presented below.
// map `NC(=O)Nc1cc(-c2cccc(F)c2)sc1C(=O)N[C@H]1CCCNC1` to recorded Growth Rate (system: Fibroblast)
0
